# Experiment Description: Cytotoxicity against HEK293 cells assessed as inhibition of cell growth incubated for 48 hrs by CCK8 assay
# Format: toxicity, cell-based
# Condition Set: human

- Compound: "C=C(C)[C@@H]1CCC(C)=C[C@H]1c1c(O)cc(CCCCC)cc1O [CANNABIDIOL]"
  EC50 at 48 h: "12 µM"
